Listed here are molecules together with their documented growth.
test system: EKVX NSCLC; test: NCI-60 one-dose screen, 48 h (100 = growth as untreated, 0 = no growth, -100 = all killed); details: 10 µM unless noted
Compounds without any hit were thinned out: in the full panel of roughly 83,000, 20% have a hit.
readoutName: growth (%)

{"molecule": "COc1cc2c(cc1I)-c1c(cc(OC)c(OC)c1OC)CC[C@@H]2NC(C)=O", "reportedResult": 44.6}
{"molecule": "COc1ccc(/C=C2\\Cc3c(Br)cccc3C2=O)c(OC)c1", "reportedResult": 59.8}
{"molecule": "CC(=O)c1ccc(Nc2nc(Cl)nc(Oc3c(Cl)cccc3Cl)n2)cc1", "reportedResult": 77.2}
{"molecule": "COc1ccc(-c2cn(-c3cccc(C(=O)/C=C/c4ccc(O)c(OC)c4)c3)c(=O)[nH]2)cc1", "reportedResult": 40.8}
{"molecule": "O=C(NCCNC(=O)c1cc(S(=O)(=O)NCCc2ccccc2)c(O)c(O)c1O)c1cc(S(=O)(=O)NCCc2ccccc2)c(O)c(O)c1O", "reportedResult": 49.9}
{"molecule": "O=C(Nc1ccc(Cl)c(C(F)(F)F)c1)c1ccc(Nc2ccc(Cl)nn2)cc1", "reportedResult": 55.7}
{"molecule": "COC(=O)c1ccc(NC(N)=NCCC(C)(C)c2ccc(C(F)(F)F)cc2)nc1", "reportedResult": 20.3}
{"molecule": "COc1ccc(/C(=C\\c2cc(OC)c(OC)c(OC)c2)C(=O)Nc2nc3ccc(Cl)cc3s2)cc1", "reportedResult": 80.5}
{"molecule": "CCCCOc1ncnc2nc[nH]c12", "reportedResult": 112}
{"molecule": "Cc1nn(-c2ccc(Cl)cc2)c(=O)n1CCN1CCOCC1", "reportedResult": 75.5}
{"molecule": "NCCCOc1cc2ccccc2cc1C(=O)NCCCOc1cc2ccccc2cc1C(=O)Nc1ccc(Cl)cc1O", "reportedResult": -45.6}
{"molecule": "CC1CN(CCCOC(=O)Nc2ccc(Cl)cc2)CCN1C(C)(C)C (centres undefined)", "reportedResult": 96.9}
{"molecule": "O=C(Nc1ccccc1Cl)Oc1ccc2ccccc2c1", "reportedResult": 98.9}
{"molecule": "C[C@]12CCc3nc(Nc4ccc(O)cc4)sc3C1=CC[C@@H]1[C@@H]2CC[C@]2(C)/C(=N/NC(N)=S)CC[C@@H]12", "reportedResult": -19.1}
{"molecule": "Cc1ccccc1N1C(c2ccccc2)=NNC12C=CC(=O)c1c(O)cccc12 (centres undefined)", "reportedResult": 79.7}
{"molecule": "C/C(=C\\C(=N\\N=C(N)N)c1ccc(Cl)cc1)c1ccc(Cl)cc1", "reportedResult": -28.2}
{"molecule": "Cc1ccc(/C=C/C(=N/N=C(N)N)c2ccccc2)cc1", "reportedResult": 35.4}
{"molecule": "CS(=O)(=O)Nc1cc(-c2cc3ncc(C#N)c(Nc4ccc(Oc5ccccc5)c(Cl)c4)c3s2)cnc1Cl", "reportedResult": 58.1}
{"molecule": "C=C(C)[C@@H]1CC[C@]2(C)[C@H](CC=C3[C@@H]4C[C@](C)(C(=O)N5CCN(C)CC5)CC[C@]4(C)CC[C@]32C)[C@@]1(C)CCC#N", "reportedResult": 85.6}

---

Test system: SN12C renal
Assay: NCI-60 one-dose screen, 48 h
Details: 10 µM unless noted
Procedure: Growth inhibition of the SN12C human tumor cell line is measured as a screen for anti-cancer activity. Cells are grown in 96 well plates and exposed to the test compound for 48 hours. Compounds are tested at a single concentration, which is 10^-5 M for most compounds. The reported endpoint is percent growth (GI% or GIPRCNT), where numbers from 0 - 100% represent growth inhibition, and numbers from -100% - 0 represent cell death. For example, a value of 40 represents 60% growth inhibition. […]
This is part of a sample that, as a whole, favours compounds with a hit. Of some 83,000 tested, about 20% had one in any assay. Activity calls are given as the source filed them. Rule for the calls: active = growth percent below 10; inactive = the rest.
Possible outcomes: 1 for active, 0 for inactive

{"compound": "O=C(Cn1nncc1CN1C(=O)CSC1=O)Nc1ccc(F)cc1", "systemUnderTest": "SN12C renal", "labelValue": 0}
{"compound": "O=[N+]([O-])c1cccc(N=C(Nc2cccc([N+](=O)[O-])c2)c2ccccc2)c1", "systemUnderTest": "SN12C renal", "labelValue": 0}
{"compound": "Nc1ncnc2c1N=C(c1ccc(F)cc1)CC(c1sc(Cl)nc1Cl)N2 (stereo not drawn)", "systemUnderTest": "SN12C renal", "labelValue": 0}
{"compound": "FC(F)(F)C1=NNC(c2ccc3ccccc3c2)=NN1", "systemUnderTest": "SN12C renal", "labelValue": 0}
{"compound": "CC1=C(O)C(=O)C(c2c(C)cc(C)c(Br)c2C)=C(O)C1=O", "systemUnderTest": "SN12C renal", "labelValue": 0}
{"compound": "COc1cc(C)cc2oc3oc(=O)c(-c4csc(-c5cc6ccccc6oc5=O)n4)cc3c(=O)c12", "systemUnderTest": "SN12C renal", "labelValue": 0}
{"compound": "CCc1ccc2c(c1)N(CCO)C1=C(C(=O)OC1)C2c1cccc(Br)c1 (stereo not drawn)", "systemUnderTest": "SN12C renal", "labelValue": 0}
{"compound": "NC(=S)N/N=C(/c1cccs1)C1CC1", "systemUnderTest": "SN12C renal", "labelValue": 0}
{"compound": "CC(=O)c1ccc(-n2c(-c3cc(-c4ccsc4)n[nH]3)n[nH]c2=S)cc1", "systemUnderTest": "SN12C renal", "labelValue": 0}
{"compound": "O=C1OC(c2ccc(-c3ccccc3)cc2)=C/C1=C/c1c(Cl)cccc1Cl", "systemUnderTest": "SN12C renal", "labelValue": 0}
{"compound": "CCCCN(CCCC)CCCN=c1nc2c(c(N)n1-c1ccccc1)c(=S)n(-c1ccccc1)c(=S)n2-c1ccccc1", "systemUnderTest": "SN12C renal", "labelValue": 1}
{"compound": "COC(=O)c1cc(Cl)cc([N+](=O)[O-])c1O", "systemUnderTest": "SN12C renal", "labelValue": 0}
{"compound": "CC[C@H](Nc1nc(N)nc(N)c1Cl)c1nc2cccc(NCc3ccc(C(=O)NO)cc3)c2c(=O)n1-c1ccccc1", "systemUnderTest": "SN12C renal", "labelValue": 0}
{"compound": "C/C(CC(=O)NNc1ccc([N+](=O)[O-])cc1)=N\\Nc1ccc([N+](=O)[O-])cc1", "systemUnderTest": "SN12C renal", "labelValue": 0}
{"compound": "O=c1cc(N2CCOCC2)oc2c(-c3ccc4c(c3)OCCO4)csc12", "systemUnderTest": "SN12C renal", "labelValue": 0}
{"compound": "CCOC(CN1CCN(CC(C)C(=O)c2ccccc2)CC1)c1ccccc1 (stereo not drawn)", "systemUnderTest": "SN12C renal", "labelValue": 0}
{"compound": "Cc1ccc2oc(=O)cc(-c3nc4ccc([N+](=O)[O-])cc4[nH]3)c2c1", "systemUnderTest": "SN12C renal", "labelValue": 0}
{"compound": "C#CC[C@@H]1C[C@]2(C)[C@H]3CC=C4[C@H]5[C@@H](C)[C@H](C)CC[C@]5(C(=O)NCCCN5CCN(CCCN)CC5)CC[C@@]4(C)[C@]3(C)CC[C@H]2C(C)(C)[C@H]1OC(C)=O", "systemUnderTest": "SN12C renal", "labelValue": 1}
{"compound": "Nc1c(C(=O)Nc2cccc(Cl)c2)sc2ncc(Br)cc12", "systemUnderTest": "SN12C renal", "labelValue": 0}
{"compound": "Cc1c(O)c(=O)n(-c2ccccc2)n1C", "systemUnderTest": "SN12C renal", "labelValue": 0}
{"compound": "O=[N+]([O-])c1ccccc1CN1CCCCC1", "systemUnderTest": "SN12C renal", "labelValue": 0}
{"compound": "O=C1C=CC(=O)N1c1cccc(N2C(=O)C=CC2=O)c1", "systemUnderTest": "SN12C renal", "labelValue": 0}
{"compound": "N#Cc1c(NN)n(C2OC(CO)C(O)C2O)c2ncnc(N)c12 (stereo not drawn)", "systemUnderTest": "SN12C renal", "labelValue": 0}
{"compound": "CCCCCCCCCCCCCCCCCC1=NC(C)(C)CN1C(C)(C)CO", "systemUnderTest": "SN12C renal", "labelValue": 0}
{"compound": "O=C(C(=O)c1cccnc1)c1cccnc1", "systemUnderTest": "SN12C renal", "labelValue": 0}
{"compound": "COc1ccc2[nH]c(O)c(/C=c3/ccc4c(c3)N=C(c3ccc(F)cc3)N=4)c2c1", "systemUnderTest": "SN12C renal", "labelValue": 0}
{"compound": "Nc1cc2nc3ccccc3oc-2cc1=O", "systemUnderTest": "SN12C renal", "labelValue": 1}
{"compound": "CN1CCN(Cc2ccc(NC(=O)c3cncc(C#Cc4cnc5cccnn45)c3)cc2C(F)(F)F)CC1", "systemUnderTest": "SN12C renal", "labelValue": 1}
{"compound": "Cc1ccc(NC(=O)c2[nH]c(SCCN(C)C)nc2-c2ccc(F)cc2)cc1C#Cc1cnc2cccnn12", "systemUnderTest": "SN12C renal", "labelValue": 0}
{"compound": "Cc1c(-c2ccc(-c3ccccc3F)cc2)nc2ccc(F)cc2c1C(=O)O", "systemUnderTest": "SN12C renal", "labelValue": 0}
{"compound": "CCOC(C)(c1ccc(Cl)cc1)C1CCNCC1 (stereo not drawn)", "systemUnderTest": "SN12C renal", "labelValue": 0}
{"compound": "c1ccc(C(Nc2ccccn2)(c2ccccc2)c2ccccc2)cc1", "systemUnderTest": "SN12C renal", "labelValue": 0}
{"compound": "COc1c(C(=O)/C=C/c2ccc(C)o2)c(O)cc2occc12", "systemUnderTest": "SN12C renal", "labelValue": 0}
{"compound": "CCCCCCCCNC(C)C(O)c1ccc(SC(C)C)cc1 (stereo not drawn)", "systemUnderTest": "SN12C renal", "labelValue": 0}
{"compound": "FC(F)(F)c1ccc(/C=N/Nc2nnc3n2N=C(c2ccc(Cl)cc2)CS3)cc1", "systemUnderTest": "SN12C renal", "labelValue": 0}
{"compound": "CCOC(=O)c1sc2nc(-c3cc4ccccc4o3)cc(-c3ccc(Cl)cc3)c2c1N", "systemUnderTest": "SN12C renal", "labelValue": 0}
{"compound": "CCCCCCCCCCCCCCC(C(=O)OCC)C(=O)OCC", "systemUnderTest": "SN12C renal", "labelValue": 0}
{"compound": "Cc1c(C)c(C)c([N+](=O)[O-])c([N+](=O)[O-])c1C", "systemUnderTest": "SN12C renal", "labelValue": 0}
{"compound": "COc1cccc(NC(=O)c2c(-c3ccccc3)c(-c3ccccc3)n[nH]c2=O)c1", "systemUnderTest": "SN12C renal", "labelValue": 0}
{"compound": "COc1cc2c(cc1I)-c1c(cc(OC)c(OC)c1OC)CC[C@@H]2NC(C)=O", "systemUnderTest": "SN12C renal", "labelValue": 0}
{"compound": "CC1=NOCC(=O)N1", "systemUnderTest": "SN12C renal", "labelValue": 0}
{"compound": "CCN(CC)CCCC(C)Nc1cnc(C(=O)Nc2ccc(Cl)c3cccnc23)cn1 (stereo not drawn)", "systemUnderTest": "SN12C renal", "labelValue": 0}
{"compound": "c1ccc(C(CC2=NCCCN2)c2ccccc2)cc1", "systemUnderTest": "SN12C renal", "labelValue": 0}
